- test details: In vitro metabolism (metabolic stability) in human liver microsomes
- test settings: human, microsomes, pH 7.4, Range HLM CLint, control compounds; 6–21 independent measurements; 0.4 mg/mL
readout: microsomal CLint at 1 µM

* Cc1ncc2n1-c1ccc(Cl)cc1C(c1ccccc1F)=NC2 | 240 to 300 µL/min/mg
* COc1ccc2c(c1)[C@]13CCCC[C@@H]1[C@H](C2)N(C)CC3 | 20.4 to 55.4 µL/min/mg

====

- test details: Blood to plasma partitioning
- Type: in vitro ADME, human
- test settings: human, whole blood, pH 7.4, human whole blood, 37 °C; read-out: B/P (whole blood to plasma partitioning ratio)
readout: blood plasma ratio at 1000 ng/mL

• Cc1nc(Nc2ncc(N3CCN(C)[C@H](C)C3)c(Nc3cc(C)n(C)n3)n2)cc(C2CC2)c1F [MMV253] = 1
• CCCCN(CCCC)CC(O)c1cc(Cl)cc2c1-c1ccc(Cl)cc1/C2=C/c1ccc(Cl)cc1 (stereo not shown) [Lumefantrine] = 0.48
• COc1cc(C)c2c(Oc3cccc(C(F)(F)F)c3)c(OC)cc(NC(C)CCCN)c2n1 (stereo not shown) [Tafenoquine] = 1.3
